Molecular target: Substance-K receptor (Homo sapiens, UniProt P21452)
Sequence (P21452 whole entry): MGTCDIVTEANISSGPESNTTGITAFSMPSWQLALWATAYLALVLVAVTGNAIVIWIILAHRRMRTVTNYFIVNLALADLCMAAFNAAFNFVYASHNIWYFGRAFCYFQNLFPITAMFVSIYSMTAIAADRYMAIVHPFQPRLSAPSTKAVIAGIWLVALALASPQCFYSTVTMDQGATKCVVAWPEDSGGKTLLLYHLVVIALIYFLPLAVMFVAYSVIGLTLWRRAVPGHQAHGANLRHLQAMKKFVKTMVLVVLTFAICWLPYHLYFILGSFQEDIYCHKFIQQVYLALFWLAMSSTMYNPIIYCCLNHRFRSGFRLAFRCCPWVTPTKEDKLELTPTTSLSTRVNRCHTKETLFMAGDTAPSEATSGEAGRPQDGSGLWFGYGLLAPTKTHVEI

Input Smiles | IC50
COC(=O)N(NC(=O)c1c(OC)c(-c2ccccc2)nc2ccccc12)c1ccccc1 | > 1000 nM

====

Biological target: Neuromedin-K receptor (Homo sapiens, UniProt P29371)
Sequence (P29371 whole entry): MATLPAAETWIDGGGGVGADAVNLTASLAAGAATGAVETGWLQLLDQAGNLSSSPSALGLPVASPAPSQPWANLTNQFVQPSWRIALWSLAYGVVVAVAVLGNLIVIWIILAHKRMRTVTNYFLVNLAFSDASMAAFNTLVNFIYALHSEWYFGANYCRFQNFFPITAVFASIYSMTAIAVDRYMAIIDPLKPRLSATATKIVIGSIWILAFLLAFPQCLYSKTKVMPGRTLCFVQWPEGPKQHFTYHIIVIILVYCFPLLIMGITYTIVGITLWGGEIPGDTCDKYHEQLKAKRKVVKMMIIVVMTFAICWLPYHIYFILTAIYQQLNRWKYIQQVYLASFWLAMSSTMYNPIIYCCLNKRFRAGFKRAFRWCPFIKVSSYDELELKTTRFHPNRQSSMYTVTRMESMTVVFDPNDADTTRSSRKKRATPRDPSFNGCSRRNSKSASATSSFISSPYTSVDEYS
Experiment: Displacement of [125I]neurokinin B from cloned human NK3 receptor expressed in CHO cells
Assay type: cell-based
Measured IC50 by item
Metric: IC50

Input Smiles | Result
COC(=O)N(NC(=O)c1c(OC)c(-c2ccccc2)nc2cccc(F)c12)c1ccccc1 | 11 nM (antagonist)
COc1c(-c2ccccc2)nc2ccccc2c1C(=O)NN(c1ccccc1)c1ccccc1 | 0.85 nM (antagonist)
COC(=O)N(NC(=O)c1c(N)c(-c2ccccc2)nc2ccccc12)c1ccccc1 | 10 nM (antagonist)
COC(=O)N(NC(=O)c1c(OC)c(-c2ccccc2F)nc2ccccc12)c1ccccc1 | 110 nM (antagonist)
COC(=O)N(NC(=O)c1c(OC)c(-c2ccccc2)nc2cc(F)ccc12)c1ccccc1 | 28 nM (antagonist)
CCC(=O)N(NC(=O)c1c(OC)c(-c2ccccc2)nc2ccccc12)c1ccccc1 | 22 nM (antagonist)
COc1c(-c2ccccc2)nc2ccccc2c1C(=O)NN(C(C)=O)c1ccccc1 | 210 nM (antagonist)
COC(=O)N(NC(=O)c1c(C)c(-c2ccccc2)nc2ccccc12)c1ccccc1 | 8.4 nM (antagonist)
COC(=O)N(NC(=O)c1c(OC)c(-c2ccccc2)nc2ccccc12)c1cccc(F)c1 | 7.4 nM (antagonist)
